Values compiled from ChEMBL document CHEMBL3792332.

Can you tell me pIC50 for the items I'm about to list?
Experiment: Antioxidant activity assessed as inhibition of singlet oxygen induced oxidation of non-fluorescent DHR to fluorescent rhodamine 123 at 37 degC measured after 30 mins by fluorimetric method
Format: physicochemical
Give bare numbers, as −log10 of the molar value.

See these solved cases before continuing.
SMILES NOTATION | EXPERIMENTAL VALUE
O=c1c2c(O)cccc2oc2cccc(-c3ccc(O)c(O)c3)c12 | 5.00
O=c1cc(/C=C/C=C/c2ccc(O)c(O)c2)oc2cc(O)ccc12 | 5.80
O=c1cc(/C=C/C=C/c2ccc(O)c(O)c2)oc2cccc(O)c12 | 5.96
O=c1c2ccc(O)cc2oc2cccc(-c3ccc(O)c(O)c3)c12 | 5.14

Hi there! I need pIC50 for each item below, if you can.
1. O=c1c2ccccc2oc2cccc(-c3ccc(O)c(O)c3)c12
2. O=c1c(O)c(-c2ccc(O)c(O)c2)oc2cc(O)cc(O)c12
3. O=c1cc(/C=C/C=C/c2ccc(O)c(O)c2)oc2ccccc12

result:
[5.36, 5.82, 5.89]

----------
Assay: Antioxidant activity assessed as inhibition of NO-induced oxidation of non-fluorescent DAF-2 to the fluorescent triazolofluorescein after 30 mins by fluorimetric method
Type: physicochemical
Can you tell me pIC50 for the items I'm about to list?
Answers are plain numbers, as −log10 of the molar value.

See these solved cases before continuing.
SMILES NOTATION | QUANTITY NAME | EXPERIMENTAL VALUE
O=c1c2ccc(O)cc2oc2cccc(-c3ccc(O)c(O)c3)c12 | pIC50 | 5.97
O=c1c2c(O)cccc2oc2cccc(-c3ccc(O)c(O)c3)c12 | pIC50 | 5.82
O=c1cc(/C=C/C=C/c2ccc(O)c(O)c2)oc2cccc(O)c12 | pIC50 | 5.91
O=c1cc(/C=C/C=C/c2ccc(O)c(O)c2)oc2cc(O)ccc12 | pIC50 | 5.85
O=c1c2ccccc2oc2cccc(-c3ccc(O)c(O)c3)c12 | pIC50 | 5.70
O=c1c(O)c(-c2ccc(O)c(O)c2)oc2cc(O)cc(O)c12 | pIC50 | 6.11

query: So what's the measured pIC50 for this one? "O=c1cc(/C=C/C=C/c2ccc(O)c(O)c2)oc2ccccc12"
result: 6.09

----------
Assay: Antioxidant activity assessed as inhibition of H2O2 induced lucigenin oxidation at 37 degC
Type: physicochemical
QUANTITY NAME: IC50 (µM)
Give bare numbers, in µM.

See these solved cases before continuing.
SMILES NOTATION | IC50 [µM]
O=c1c2ccc(O)cc2oc2cccc(-c3ccc(O)c(O)c3)c12 | 518
O=c1c(O)c(-c2ccc(O)c(O)c2)oc2cc(O)cc(O)c12 | 1340
O=c1cc(/C=C/C=C/c2ccc(O)c(O)c2)oc2ccccc12 | 143
O=c1cc(/C=C/C=C/c2ccc(O)c(O)c2)oc2cc(O)ccc12 | 121
O=c1cc(/C=C/C=C/c2ccc(O)c(O)c2)oc2cccc(O)c12 | 125

Now, please, on to the next compound.
query: So what's the measured IC50 for this one? "O=c1c2c(O)cccc2oc2cccc(-c3ccc(O)c(O)c3)c12"
result: 658

----------
Test: Antioxidant activity assessed as inhibition of peroxynitrite induced oxidation of the non-fluorescent dihydrorhodamine 123 to the fluorescent rhodamine 123 after 2 mins by fluorimetric method
Assay type: physicochemical
Can you tell me pIC50 for the items I'm about to list?
Numbers only, as −log10 of the molar value.

See these solved cases before continuing.
SMILES NOTATION | QUANTITY NAME | EXPERIMENTAL VALUE
O=c1cc(/C=C/C=C/c2ccc(O)c(O)c2)oc2cc(O)ccc12 | pIC50 | 6.54
O=c1cc(/C=C/C=C/c2ccc(O)c(O)c2)oc2cccc(O)c12 | pIC50 | 6.47
O=c1c2ccc(O)cc2oc2cccc(-c3ccc(O)c(O)c3)c12 | pIC50 | 6.41
O=c1c2ccccc2oc2cccc(-c3ccc(O)c(O)c3)c12 | pIC50 | 6.29

Hi there! I need pIC50 for each item below, if you can.
1. O=c1c(O)c(-c2ccc(O)c(O)c2)oc2cc(O)cc(O)c12
2. O=c1c2c(O)cccc2oc2cccc(-c3ccc(O)c(O)c3)c12
3. O=c1cc(/C=C/C=C/c2ccc(O)c(O)c2)oc2ccccc12

result:
6.35
6.24
6.48

----------
Assay: Antioxidant activity assessed as inhibition of HOCl-induced oxidation of DHR to rhodamine 123 at 37 degC by fluorimetric method
Assay type: physicochemical
pIC50: −log10 of the molar value.
pIC50 of 4 or higher: YES. Under 4: NO.

Please review the entries below; each comes with its answer.
COMPOUND | CLASS
O=c1c(O)c(-c2ccc(O)c(O)c2)oc2cc(O)cc(O)c12 [QUERCETIN] | YES
O=c1c2ccccc2oc2cccc(-c3ccc(O)c(O)c3)c12 | NO

query: Has "O=c1cc(/C=C/C=C/c2ccc(O)c(O)c2)oc2cc(O)ccc12" a recorded pIC50 greater than or equal to 4?
result: YES

query: Has "O=c1c2ccc(O)cc2oc2cccc(-c3ccc(O)c(O)c3)c12" a recorded pIC50 greater than or equal to 4?
result: YES

query: Has "O=c1cc(/C=C/C=C/c2ccc(O)c(O)c2)oc2ccccc12" a recorded pIC50 greater than or equal to 4?
result: YES

----------
Test: Antioxidant activity assessed as inhibition of superoxide induced reduction of NBT measured for 2 mins by UV-visible spectrophotometric method
Assay type: physicochemical
Conditions: read-out: IC50
Can you tell me pIC50 for the items I'm about to list?
Give bare numbers, as −log10 of the molar value.

See these solved cases before continuing.
SMILES NOTATION | QUANTITY NAME | EXPERIMENTAL VALUE
O=c1c(O)c(-c2ccc(O)c(O)c2)oc2cc(O)cc(O)c12 | pIC50 | 4.22
O=c1c2ccc(O)cc2oc2cccc(-c3ccc(O)c(O)c3)c12 | pIC50 | 4.21

Hi there! I need pIC50 for each item below, if you can.
1. O=c1c2ccccc2oc2cccc(-c3ccc(O)c(O)c3)c12
2. O=c1c2c(O)cccc2oc2cccc(-c3ccc(O)c(O)c3)c12

result:
1. 4.26
2. 4.10

----------
Assay: Antioxidant activity assessed as inhibition of peroxynitrite induced oxidation of the non-fluorescent dihydrorhodamine 123 to the fluorescent rhodamine-123 in presence of NaHCO3 after 2 mins by fluorimetric method
Type: physicochemical
Can you tell me IC50 for the items I'm about to list?
One number for each entry, in nM.

See these solved cases before continuing.
SMILES NOTATION | UNIT OF MEASURE | IC50
O=c1cc(/C=C/C=C/c2ccc(O)c(O)c2)oc2cc(O)ccc12 | nM | 300
O=c1c2ccc(O)cc2oc2cccc(-c3ccc(O)c(O)c3)c12 | nM | 660
O=c1cc(/C=C/C=C/c2ccc(O)c(O)c2)oc2ccccc12 | nM | 340

query: So what's the measured IC50 for this one? "O=c1c2c(O)cccc2oc2cccc(-c3ccc(O)c(O)c3)c12"
result: 560
